Biological target: porcine serum albumin (PSA) (Sus scrofa)
Construct: purchased Merck (Darmstadt, Germany)
Sequence (P08835 25-607): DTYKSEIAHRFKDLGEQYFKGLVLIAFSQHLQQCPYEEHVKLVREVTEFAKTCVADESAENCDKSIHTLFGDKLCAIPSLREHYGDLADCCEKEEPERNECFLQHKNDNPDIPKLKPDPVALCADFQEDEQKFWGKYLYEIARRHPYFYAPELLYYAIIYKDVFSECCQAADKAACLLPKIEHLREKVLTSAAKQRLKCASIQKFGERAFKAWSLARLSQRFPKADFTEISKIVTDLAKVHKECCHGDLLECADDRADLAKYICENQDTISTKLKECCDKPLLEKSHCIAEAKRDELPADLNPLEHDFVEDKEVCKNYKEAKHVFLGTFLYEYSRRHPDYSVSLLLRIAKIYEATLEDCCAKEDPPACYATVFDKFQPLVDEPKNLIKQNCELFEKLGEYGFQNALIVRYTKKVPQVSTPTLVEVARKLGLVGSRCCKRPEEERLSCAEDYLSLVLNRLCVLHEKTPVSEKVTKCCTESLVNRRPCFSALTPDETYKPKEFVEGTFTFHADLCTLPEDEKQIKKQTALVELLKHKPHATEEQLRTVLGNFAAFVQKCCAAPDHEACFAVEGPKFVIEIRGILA
Test: Fluorescence quenching of porcine serum albumin by mycotoxins
Type: binding
readoutType: pKd
Remember, pKd is on a log scale: it is -log10 of the molar concentration.

Query: What value of measured pKd is listed for COc1cc(O)c2c(=O)oc3cc(O)cc(C)c3c2c1 [AME, alternariol-9-monomethylether] ?
Response: 4.83

* * *

Biological target: human serum albumin (HSA) (Homo sapiens, UniProt P02768)
Sequence (P02768 25-609): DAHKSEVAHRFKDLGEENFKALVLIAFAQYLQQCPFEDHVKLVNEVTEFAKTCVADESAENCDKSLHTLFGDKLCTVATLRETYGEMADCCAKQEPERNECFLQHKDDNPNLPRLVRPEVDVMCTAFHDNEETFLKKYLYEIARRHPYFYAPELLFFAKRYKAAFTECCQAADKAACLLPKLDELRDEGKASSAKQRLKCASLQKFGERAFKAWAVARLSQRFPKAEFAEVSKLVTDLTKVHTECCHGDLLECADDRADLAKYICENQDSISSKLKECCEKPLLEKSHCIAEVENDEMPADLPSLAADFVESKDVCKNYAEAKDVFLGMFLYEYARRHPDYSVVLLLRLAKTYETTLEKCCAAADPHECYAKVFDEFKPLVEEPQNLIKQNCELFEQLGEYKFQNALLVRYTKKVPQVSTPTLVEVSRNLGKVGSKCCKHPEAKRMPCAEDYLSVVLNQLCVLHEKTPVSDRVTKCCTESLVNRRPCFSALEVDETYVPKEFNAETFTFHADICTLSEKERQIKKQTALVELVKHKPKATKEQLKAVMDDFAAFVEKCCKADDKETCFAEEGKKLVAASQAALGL
Test: Ultracentrifugation studies (unbound fraction in presence of HSA)
Type: binding
Design: purchased Merck (Darmstadt, Germany)
readoutType: Kd (µM)
Kindly provide the numeric value in µM only, without the unit symbol.

Query: // query Kd value for entry `COc1cc(O)c2c(=O)oc3cc(O)cc(C)c3c2c1`
Response: 4.57
